# Test system: SF-539 CNS
# experimentalProtocol: NCI tumour cell line growth inhibition, 48 h
propertyName: TGI (µM)

>>> observedmeasurement("C[C@]12CC[C@@H]3c4ccc(O)c([N+](=O)[O-])c4CC[C@H]3[C@@H]1CC[C@@H]2NS(=O)(=O)c1ccc(C(F)(F)F)cc1")
3.39
>>> observedmeasurement("CC1(C)CCC(C)(C)c2cc(C(=O)Nc3ccc(C(=O)O)cc3)ccc21")
30.3
>>> observedmeasurement("Cc1cc(O)c2c(c1)C(O)(c1ccc3c(c1O)C(=O)c1c(O)cc(C)cc1C3(O)C1OC(CO)C(O)C(O)C1O)c1cccc(O)c1C2=O (stereo not drawn)")
26.5
>>> observedmeasurement("CC(=O)N(C)c1ccc(Nc2ccnc3ccc4nn(C)nc4c23)cc1")
46.4
>>> observedmeasurement("C=C(C)[C@H]1CC(=O)/C(C)=C\\CC/C(C)=C/CC[C@@]2(C)O[C@@H]2C1")
42.2
>>> observedmeasurement("COc1cc(/C=C2\\CN(C)CC3=C2Nc2nc(SC)[nH]c(=O)c2C3c2cc(OC)c(OC)c(OC)c2)cc(OC)c1OC (stereo not drawn)")
15.6

----------
# System: MCF7 breast
# experimentalProtocol: NCI tumour cell line growth inhibition, 48 h; in the data active = GI50 below about 0.43 µM; inactive = the rest
Outcomes: True = active, False = inactive

>>> discretelabel("COc1ccc(-n2nnc3c(sc4ccccc43)c2=O)cc1")
"False"
>>> discretelabel("Cc1cccc(NC(=O)c2sc3nc4c(cc3c2N)CCCC4)c1C")
"True"
>>> discretelabel("Cc1ccc(C(=O)Nc2ccc(CN3CCN(C)CC3)c(C(F)(F)F)c2)cc1C#Cc1cnc(N)c2ccc(F)cc12")
"False"
>>> discretelabel("CS(=O)(=O)c1ccc(Cl)c([N+](=O)[O-])c1")
"False"
>>> discretelabel("CSc1ccc(C2=Nn3c(nnc3-c3ccc(F)c(Cl)c3)SC2)cc1")
"False"
>>> discretelabel("COc1ccc(Cl)cc1Nc1nc(C(F)(F)F)ccc1C(=O)NN")
"False"
>>> discretelabel("CCN1CCN(Cc2ccc(NC(=O)Nc3ccc(-n4ccc5c(NC(=O)c6ccccc6)nccc54)cc3)cc2C(F)(F)F)CC1")
"False"
>>> discretelabel("COc1ccc(C(=O)N2c3ccccc3Sc3ccccc32)c(F)c1")
"True"

----------
# Test system: CAKI-1 renal
# experimentalProtocol: NCI tumour cell line growth inhibition, 48 h
Reported TGI values for the following molecules.
propertyName: TGI

>>> observedmeasurement("NCCCCNCCCNC(=O)CNC(=O)CC(O)C(N)CCCC(NC(=O)C(CN)NC(=O)C(O)CNC(=O)CC(N)c1ccc(O)cc1)C(=O)O (stereo unspecified)")
"> 10 µM"
>>> observedmeasurement("C/C(=N/N(C=O)C[n+]1ccccc1)C(CN(CC(C)C)CC(C)C)C(=O)Nc1ccc(C)cc1C (stereo unspecified)")
"> 100 µM"
>>> observedmeasurement("CCN(c1ccc(CO)c(Cl)c1)C(C)c1ccc(F)cc1 (stereo unspecified)")
"21.7 µM"
>>> observedmeasurement("Cn1nc2c(c1N)Cc1c(nn(C)c1N)-c1ccccc1-2")
"> 100 µM"
>>> observedmeasurement("CCC(=O)Nc1ccc(NS(=O)(=O)c2ccc(Cl)cc2)cc1")
"> 100 µM"
>>> observedmeasurement("N#Cc1ccc(-c2nc(C#N)c(N)o2)cc1")
"> 10 µM"
>>> observedmeasurement("CC1(C)O[C@H]2OC3CCC(=O)CC3(O)[C@H]2O1 (stereo partly specified)")
"> 100 µM"
>>> observedmeasurement("Nc1c(C(=O)Nc2ccc([As](=O)(O)O)cc2)cnc2nnnn12")
"> 100 µM"
>>> observedmeasurement("CCN(CCCCCCCCCCN1CC(=O)N(CCCCCCCCCCN(CC)Cc2ccccc2OC)CC1=O)Cc1ccccc1OC")
"3.15 µM"
>>> observedmeasurement("CC(C)N(C(=O)C12C3C4C1C1C2C3C41C(O)C(C)(C)C)C(C)C (stereo unspecified)")
"> 50 µM"
>>> observedmeasurement("O=C1/C(=C/c2ccc(Cl)cc2)CCCc2ccc(F)cc21")
"64.5 µM"
>>> observedmeasurement("N/C(=N\\OC(=O)c1ccccc1)C(C(=O)NOC(=O)c1ccccc1)C1CCCCC1 (stereo unspecified)")
"1.73 µM"
>>> observedmeasurement("CCOC(=O)c1c(NC(=O)c2ccc(C(C)C)cc2)sc2c(CN(C)C)c(O)ccc12")
"3.44 µM"
>>> observedmeasurement("O=C(Sc1c(-c2ccccc2)c(=O)n(-c2ccccc2)c(=S)n1-c1ccccc1)c1ccco1")
"> 100 µM"
>>> observedmeasurement("Nc1cc(N)c2nc(-c3ccccc3)c(Oc3ccc(F)cc3)nc2c1")
"37 µM"
>>> observedmeasurement("O=[N+]([O-])/C(Cl)=C(/C(Cl)=C(Cl)Cl)N1CCCCC1")
"24.9 µM"
>>> observedmeasurement("NC(Cc1[nH]nc2ccccc12)C(=O)O (stereo unspecified)")
"> 100 µM"
>>> observedmeasurement("C[n+]1c(-c2ccc(NC(=O)c3ccc(C(=O)Nc4ccc(-c5cn6ccccc6[n+]5C)cc4)cc3)cc2)cn2ccccc21")
"> 100 µM"
>>> observedmeasurement("COc1ccc(OC)c(NC(=O)C(=O)C(C(=O)c2ccccc2F)C2OC(=O)c3ccccc32)c1 (stereo unspecified)")
"> 100 µM"
>>> observedmeasurement("CC(=O)OC1CC2(O)C(CCC3(C)C(c4ccc(=O)oc4)CCC32O)C2(C)C1=CC(O)C1OC12 (stereo unspecified)")
"0.0968 µM"
>>> observedmeasurement("Cc1nnc2n1-c1ccccc1N(Cc1ccccc1)CC2")
"> 100 µM"
